measured_on: βTrCP (Homo sapiens, UniProt Q9Y297)
run_description: Fluorescence polarisation (FP) binding assay with fluorescein-tagged IκB peptide
experimental_context: Table 11, with spread; read-out: FP IC50/μM
Starred links: 1 amine or outer side, 2 acyl side, 3 side chain; linkers in the order of their positions; H or OH if unused. Non-standard residues stand in square brackets, D forms with d. Residues, ends and D or L forms follow the SMILES beside them. *: point of attachment. Phe(4-NO2) = N[C@@H](Cc1ccc([N+](=O)[O-])cc1)C(=O)O; 2Naphthylsulfonyl = O=S(=O)(c1ccc2ccccc2c1)*; Phe(3-F) = N[C@@H](Cc1cccc(F)c1)C(=O)O; Phe(4-F) = N[C@@H](Cc1ccc(F)cc1)C(=O)O; 1Nal = N[C@@H](Cc1cccc2ccccc12)C(=O)O; Suc = O=C(CCC(=O)[*:2])[*:1]; Propionyl = CCC(=O)*
Listed here are compounds together with their documented log10 of IC50.
A difference of one corresponds to tenfold IC50; all values are log10 with IC50 in µM.

[[record]]
compound = "NC(=O)[C@H](CCC(=O)O)NC(=O)[C@H](Cc1ccc([N+](=O)[O-])cc1)NC(=O)[C@H](Cc1cccc(F)c1)NC(=O)CNC(=O)[C@H](CCC(=O)O)NC(=O)CCC(=O)O [UBP004, Suc-EGF(3F)F(4NO2)E-NH2] (Suc-EG[Phe(3-F)][Phe(4-NO2)]E-NH2)"
endpoint = "log10 of IC50"
number = -0.28


*Q* Request the reported log10 of IC50 associated with NC(=O)[C@H](CCC(=O)O)NC(=O)[C@H](Cc1c[nH]cn1)NC(=O)[C@H](Cc1cccc(F)c1)NC(=O)CNC(=O)[C@H](CCC(=O)O)NC(=O)CCC(=O)O [UBP015, Suc-EGF(3F)HE-NH2] (Suc-EG[Phe(3-F)]HE-NH2)
*A* -0.28

*Q* Query: log10 of IC50; subject: NC(=O)[C@H](CCC(=O)O)NC(=O)[C@H](Cc1c[nH]c2ccccc12)NC(=O)[C@H](Cc1cccc(F)c1)NC(=O)CNC(=O)[C@H](CCC(=O)O)NC(=O)[C@@H](CC(=O)O)NS(=O)(=O)c1ccc2ccccc2c1 [UBP031, 2-NaphthylSO2-dEGF(3F)WE-NH2] (2Naphthylsulfonyl-[dD]EG[Phe(3-F)]WE-NH2)
*A* -1.36

*Q* Endpoint output: log10 of IC50 of NC(=O)[C@H](CCC(=O)O)NC(=O)[C@H](Cc1c[nH]c2ccccc12)NC(=O)[C@H](Cc1cccc(F)c1)NC(=O)CNC(=O)[C@H](CCC(=O)O)NC(=O)CCC(=O)O [UBP014, Suc-EGF(3F)WE-NH2] (Suc-EG[Phe(3-F)]WE-NH2) . Value?
*A* -1.02

*Q* Consider the compound shown here: NC(=O)[C@H](CCC(=O)O)NC(=O)[C@H](Cc1ccccc1)NC(=O)[C@H](Cc1ccc(O)cc1)NC(=O)CNC(=O)[C@H](CCC(=O)O)NC(=O)CCC(=O)O [UBP007, Suc-EGYFE-NH2] (Suc-EGYFE-NH2) What is its recorded log10 of IC50?
*A* 0.02

*Q* Give the measured log10 of IC50 of NC(=O)[C@H](CCC(=O)O)NC(=O)[C@H](Cc1ccc([N+](=O)[O-])cc1)NC(=O)[C@H](Cc1ccc(F)cc1)NC(=O)CNC(=O)[C@H](CCC(=O)O)NC(=O)CCC(=O)O [UBP005, Suc-EGF(4F)F(4NO2)E-NH2] (Suc-EG[Phe(4-F)][Phe(4-NO2)]E-NH2) .
*A* 0.08

*Q* // lookup log10 of IC50 for NC(=O)[C@H](CCC(=O)O)NC(=O)[C@H](Cc1cccc2ccccc12)NC(=O)[C@H](Cc1ccc(O)cc1)NC(=O)CNC(=O)[C@H](CCC(=O)O)NC(=O)CCC(=O)O [UBP009, Suc-EGY1NalE-NH2] (Suc-EGY[1Nal]E-NH2)
*A* 0.06

*Q* I'd like to know its log10 of IC50. The compound in question is CCC(=O)N[C@H](CC(=O)O)C(=O)N[C@@H](CCC(=O)O)C(=O)NCC(=O)N[C@@H](Cc1cccc(F)c1)C(=O)N[C@@H](Cc1c[nH]c2ccccc12)C(=O)N[C@@H](CCC(=O)O)C(N)=O [UBP019, Et(CO)-dEGF(3F)WE-NH2] (Propionyl-[dD]EG[Phe(3-F)]WE-NH2)
*A* -0.84

---

measured_on: Skp2 (Homo sapiens)
Sequence (Q13309 whole entry, species assumed): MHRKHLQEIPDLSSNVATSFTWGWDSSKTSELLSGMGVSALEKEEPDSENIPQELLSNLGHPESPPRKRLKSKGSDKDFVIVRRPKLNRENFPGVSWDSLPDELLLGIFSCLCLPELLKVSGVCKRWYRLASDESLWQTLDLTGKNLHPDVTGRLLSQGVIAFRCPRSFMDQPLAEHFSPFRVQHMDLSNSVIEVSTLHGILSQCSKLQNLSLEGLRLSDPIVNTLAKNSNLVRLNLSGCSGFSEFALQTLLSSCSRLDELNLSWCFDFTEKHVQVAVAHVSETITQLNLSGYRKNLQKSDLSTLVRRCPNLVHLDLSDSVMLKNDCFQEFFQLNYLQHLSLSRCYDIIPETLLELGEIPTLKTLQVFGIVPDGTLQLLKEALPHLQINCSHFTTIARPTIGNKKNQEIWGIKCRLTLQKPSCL
Sequence (P63208 whole entry partner, species assumed): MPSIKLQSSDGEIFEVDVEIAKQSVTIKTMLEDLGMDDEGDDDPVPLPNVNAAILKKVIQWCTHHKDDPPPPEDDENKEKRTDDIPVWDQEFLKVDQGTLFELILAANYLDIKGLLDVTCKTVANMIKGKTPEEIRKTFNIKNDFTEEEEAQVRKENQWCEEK
Sequence (Q13616 whole entry partner, species assumed): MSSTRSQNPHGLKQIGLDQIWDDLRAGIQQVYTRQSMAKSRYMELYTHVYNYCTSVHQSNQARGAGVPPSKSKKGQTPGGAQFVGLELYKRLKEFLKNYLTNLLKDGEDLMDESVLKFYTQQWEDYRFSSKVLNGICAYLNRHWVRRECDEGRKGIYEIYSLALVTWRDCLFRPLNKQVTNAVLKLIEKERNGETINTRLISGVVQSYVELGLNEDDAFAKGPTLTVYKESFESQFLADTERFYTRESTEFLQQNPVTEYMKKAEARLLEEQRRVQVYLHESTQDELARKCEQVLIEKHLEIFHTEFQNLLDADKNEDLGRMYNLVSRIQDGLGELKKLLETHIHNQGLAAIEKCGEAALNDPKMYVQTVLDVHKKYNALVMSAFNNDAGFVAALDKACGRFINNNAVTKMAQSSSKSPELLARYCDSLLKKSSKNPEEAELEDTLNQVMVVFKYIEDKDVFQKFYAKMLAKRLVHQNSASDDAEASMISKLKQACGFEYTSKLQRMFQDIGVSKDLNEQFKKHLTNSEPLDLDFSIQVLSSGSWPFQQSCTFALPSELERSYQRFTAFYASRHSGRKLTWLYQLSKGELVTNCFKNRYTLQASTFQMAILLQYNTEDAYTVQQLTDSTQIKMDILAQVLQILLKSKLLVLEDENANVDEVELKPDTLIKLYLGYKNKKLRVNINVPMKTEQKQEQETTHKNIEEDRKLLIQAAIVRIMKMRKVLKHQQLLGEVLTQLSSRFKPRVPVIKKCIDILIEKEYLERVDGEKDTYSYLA
Sequence (P62877 whole entry partner, species assumed): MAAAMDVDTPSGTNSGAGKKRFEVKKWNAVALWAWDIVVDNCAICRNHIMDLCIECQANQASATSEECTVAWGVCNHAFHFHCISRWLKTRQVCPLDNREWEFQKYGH
run_description: Selectivity assay vs other E3s: Skp2
Type: biochemical
experimental_context: 100 μM, value in brackets; read-out: % Inhibition Skp2 @ (100 μM)
Non-standard residues stand in square brackets, D forms with d. Residues, ends and D or L forms follow the SMILES beside them. *: point of attachment. Phe(3-F) = N[C@@H](Cc1cccc(F)c1)C(=O)O; NMeE = CN[C@@H](CCC(=O)O)C(=O)O; Tos = Cc1ccc(S(=O)(=O)*)cc1
endpoint: inhibition at 100 µM (%)
Express the result in % but write the number alone.

[[record]]
molecule = "Cc1ccc(S(=O)(=O)N[C@H](CC(=O)O)C(=O)N[C@@H](CCC(=O)O)C(=O)NCC(=O)N[C@@H](Cc2cccc(F)c2)C(=O)N[C@@H](Cc2c[nH]c3ccccc23)C(=O)N[C@@H](CC(=O)O)C(N)=O)cc1 [UBP027, Ts-dEGF(3F)WD-NH2] (Tos-[dD]EG[Phe(3-F)]WD-NH2)"
unit_text = "%"
number = 6

[[record]]
molecule = "Cc1ccc(S(=O)(=O)N[C@H](CC(=O)O)C(=O)N[C@@H](CCC(=O)O)C(=O)NCC(=O)N[C@@H](Cc2cccc(F)c2)C(=O)N[C@@H](Cc2c[nH]c3ccccc23)C(=O)N(C)[C@@H](CCC(=O)O)C(N)=O)cc1 [UBP032, Ts-dEGF(3F)WE(Me)-NH2] (Tos-[dD]EG[Phe(3-F)]W[NMeE]-NH2)"
unit_text = "%"
number = 0


Then there is this molecule:
*Q* Item Cc1ccc(S(=O)(=O)N[C@@H](CC(=O)O)C(=O)N[C@@H](CCC(=O)O)C(=O)NCC(=O)N[C@@H](Cc2cccc(F)c2)C(=O)N[C@@H](Cc2c[nH]c3ccccc23)C(=O)N[C@@H](CCC(=O)O)C(N)=O)cc1 [Ts-DEGF(3F)WE-NH2] (Tos-DEG[Phe(3-F)]WE-NH2) has what recorded inhibition at 100 µM?
*A* 7

---

measured_on: βTrCP (Homo sapiens, UniProt Q9Y297)
Sequence (Q9Y297 1-605): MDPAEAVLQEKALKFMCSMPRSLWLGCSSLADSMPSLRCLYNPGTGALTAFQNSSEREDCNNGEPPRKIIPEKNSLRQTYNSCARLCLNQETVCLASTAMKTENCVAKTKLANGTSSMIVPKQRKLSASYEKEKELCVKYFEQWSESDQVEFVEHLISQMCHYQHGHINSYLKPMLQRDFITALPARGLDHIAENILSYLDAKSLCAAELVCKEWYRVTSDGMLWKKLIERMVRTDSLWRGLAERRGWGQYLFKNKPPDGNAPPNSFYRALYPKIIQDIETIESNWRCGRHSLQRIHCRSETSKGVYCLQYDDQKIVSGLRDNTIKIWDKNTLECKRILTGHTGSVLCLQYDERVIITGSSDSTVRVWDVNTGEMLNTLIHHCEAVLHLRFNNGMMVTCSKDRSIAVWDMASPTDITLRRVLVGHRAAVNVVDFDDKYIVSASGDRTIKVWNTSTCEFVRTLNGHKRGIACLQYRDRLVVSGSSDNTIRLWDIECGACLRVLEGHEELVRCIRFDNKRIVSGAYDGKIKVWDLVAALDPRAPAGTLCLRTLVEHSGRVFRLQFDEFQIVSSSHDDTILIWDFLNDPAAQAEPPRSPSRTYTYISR
run_description: Biotin pull down assay with biotinylated IκB peptide
Type: binding
experimental_context: 10 μM compound
Starred links: 1 amine or outer side, 2 acyl side, 3 side chain; linkers in the order of their positions; H or OH if unused. Non-standard residues stand in square brackets, D forms with d. Residues, ends and D or L forms follow the SMILES beside them. *: point of attachment. Phe(4-NO2) = N[C@@H](Cc1ccc([N+](=O)[O-])cc1)C(=O)O; 2Naphthylsulfonyl = O=S(=O)(c1ccc2ccccc2c1)*; Phe(3-F) = N[C@@H](Cc1cccc(F)c1)C(=O)O; Phe(4-F) = N[C@@H](Cc1ccc(F)cc1)C(=O)O; 1Nal = N[C@@H](Cc1cccc2ccccc12)C(=O)O; X1 = CCCCOc1ccc(S(=O)(=O)*)cc1; X2 = COc1ccc(S(=O)(=O)*)cc1OC; Suc = O=C(CCC(=O)[*:2])[*:1]; Propionyl = CCC(=O)*
endpoint: Biotin Pulldown Assay 10 μM

Consider the following illustrative entries.
[[record]]
compound = "NC(=O)[C@H](CCC(=O)O)NC(=O)[C@H](Cc1c[nH]cn1)NC(=O)[C@H](Cc1cccc(F)c1)NC(=O)CNC(=O)[C@H](CCC(=O)O)NC(=O)CCC(=O)O [UBP015, Suc-EGF(3F)HE-NH2] (Suc-EG[Phe(3-F)]HE-NH2)"
endpoint = "Biotin Pulldown Assay 10 μM"
result = "reduces/"

[[record]]
compound = "NC(=O)[C@H](CCC(=O)O)NC(=O)[C@H](Cc1cccc2ccccc12)NC(=O)[C@H](Cc1ccc(O)cc1)NC(=O)CNC(=O)[C@H](CCC(=O)O)NC(=O)CCC(=O)O [UBP009, Suc-EGY1NalE-NH2] (Suc-EGY[1Nal]E-NH2)"
endpoint = "Biotin Pulldown Assay 10 μM"
result = "no effect/"

[[record]]
compound = "NC(=O)[C@H](CCC(=O)O)NC(=O)[C@H](Cc1c[nH]c2ccccc12)NC(=O)[C@H](Cc1cccc(F)c1)NC(=O)CNC(=O)[C@H](CCC(=O)O)NC(=O)CCC(=O)O [UBP014, Suc-EGF(3F)WE-NH2] (Suc-EG[Phe(3-F)]WE-NH2)"
endpoint = "Biotin Pulldown Assay 10 μM"
result = "reduces/"

[[record]]
compound = "COc1ccc(S(=O)(=O)N[C@H](CC(=O)O)C(=O)N[C@@H](CCC(=O)O)C(=O)NCC(=O)N[C@@H](Cc2cccc(F)c2)C(=O)N[C@@H](Cc2c[nH]c3ccccc23)C(=O)N[C@@H](CCC(=O)O)C(N)=O)cc1OC [UBP029, 3,4-(MeO)2-PhSO2-dEGF(3F)WE-NH2] (X2-[dD]EG[Phe(3-F)]WE-NH2)"
endpoint = "Biotin Pulldown Assay 10 μM"
result = "reduces/"

[[record]]
compound = "NC(=O)[C@H](CCC(=O)O)NC(=O)[C@H](Cc1ccc([N+](=O)[O-])cc1)NC(=O)[C@H](Cc1ccc(F)cc1)NC(=O)CNC(=O)[C@H](CCC(=O)O)NC(=O)CCC(=O)O [UBP005, Suc-EGF(4F)F(4NO2)E-NH2] (Suc-EG[Phe(4-F)][Phe(4-NO2)]E-NH2)"
endpoint = "Biotin Pulldown Assay 10 μM"
result = "no effect/"

[[record]]
compound = "NC(=O)CC[C@H](NC(=O)CCC(=O)O)C(=O)NCC(=O)N[C@@H](Cc1cccc(F)c1)C(=O)N[C@@H](Cc1ccc([N+](=O)[O-])cc1)C(=O)N[C@@H](CCC(=O)O)C(N)=O [UBP012, Suc-QGF(3F)F(4NO2)E-NH2]"
endpoint = "Biotin Pulldown Assay 10 μM"
result = "no effect/"

[[record]]
compound = "CCCCOc1ccc(S(=O)(=O)N[C@H](CC(=O)O)C(=O)N[C@@H](CCC(=O)O)C(=O)NCC(=O)N[C@@H](Cc2cccc(F)c2)C(=O)N[C@@H](Cc2c[nH]c3ccccc23)C(=O)N[C@@H](CCC(=O)O)C(N)=O)cc1 [UBP030, 4-(BuO)-PhSO2-dEGF(3F)WE-NH2] (X1-[dD]EG[Phe(3-F)]WE-NH2)"
endpoint = "Biotin Pulldown Assay 10 μM"
result = "reduces/"

[[record]]
compound = "NC(=O)[C@H](CCC(=O)O)NC(=O)[C@H](Cc1c[nH]c2ccccc12)NC(=O)[C@H](Cc1cccc(F)c1)NC(=O)CNC(=O)[C@H](CCC(=O)O)NC(=O)[C@@H](CC(=O)O)NS(=O)(=O)c1ccc2ccccc2c1 [UBP031, 2-NaphthylSO2-dEGF(3F)WE-NH2] (2Naphthylsulfonyl-[dD]EG[Phe(3-F)]WE-NH2)"
endpoint = "Biotin Pulldown Assay 10 μM"
result = "reduces/"


*Q* Which value of Biotin Pulldown Assay 10 μM has been reported for NC(=O)[C@H](CCC(=O)O)NC(=O)[C@H](Cc1cccc2ccccc12)NC(=O)[C@H](Cc1ccc([N+](=O)[O-])cc1)NC(=O)CNC(=O)[C@H](CCC(=O)O)NC(=O)CCC(=O)O [UBP011, Suc-EGF(4NO2)1NalE-NH2] (Suc-EG[Phe(4-NO2)][1Nal]E-NH2) in the records?
*A* reduces/

*Q* State the recorded Biotin Pulldown Assay 10 μM for this entry: CC(=O)N[C@H](CC(=O)O)C(=O)N[C@@H](CCC(=O)O)C(=O)NCC(=O)N[C@@H](Cc1cccc(F)c1)C(=O)N[C@@H](Cc1cccc2ccccc12)C(=O)N[C@@H](CCC(=O)O)C(N)=O [UBP016, Ac-dEGF(3F)1NalE-NH2] (Ac-[dD]EG[Phe(3-F)][1Nal]E-NH2)
*A* reduces/

*Q* Which Biotin Pulldown Assay 10 μM is listed for CCC(=O)N[C@H](CC(=O)O)C(=O)N[C@@H](CCC(=O)O)C(=O)NCC(=O)N[C@@H](Cc1cccc(F)c1)C(=O)N[C@@H](Cc1c[nH]c2ccccc12)C(=O)N[C@@H](CCC(=O)O)C(N)=O [UBP019, Et(CO)-dEGF(3F)WE-NH2] (Propionyl-[dD]EG[Phe(3-F)]WE-NH2) ?
*A* reduces/

*Q* Look at this compound and give its reported Biotin Pulldown Assay 10 μM. NC(=O)[C@H](CCC(=O)O)NC(=O)[C@H](Cc1ccccc1)NC(=O)[C@H](Cc1ccc(O)cc1)NC(=O)CNC(=O)[C@H](CCC(=O)O)NC(=O)CCC(=O)O [UBP007, Suc-EGYFE-NH2] (Suc-EGYFE-NH2)
*A* no effect/
